# SUBJECT_OF_TEST: T1, IL-12 (Human IL12 (His Tag)), Sino Biological Cat. No. CT-050-H08H-20 (human, UniProt P29460 23-328; P29459 23-219)
# T1 construct: Bought His-tagged p35/p40 heterodimer
# T1 sequence (looked up) 1: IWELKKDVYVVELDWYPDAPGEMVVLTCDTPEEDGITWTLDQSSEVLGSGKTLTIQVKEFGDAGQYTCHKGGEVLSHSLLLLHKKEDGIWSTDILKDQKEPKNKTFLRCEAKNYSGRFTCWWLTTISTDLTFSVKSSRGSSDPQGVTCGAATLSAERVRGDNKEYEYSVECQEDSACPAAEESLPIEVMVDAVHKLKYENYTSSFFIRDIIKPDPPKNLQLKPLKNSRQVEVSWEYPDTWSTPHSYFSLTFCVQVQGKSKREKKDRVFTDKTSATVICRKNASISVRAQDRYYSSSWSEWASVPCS
# T1 sequence (looked up) 2: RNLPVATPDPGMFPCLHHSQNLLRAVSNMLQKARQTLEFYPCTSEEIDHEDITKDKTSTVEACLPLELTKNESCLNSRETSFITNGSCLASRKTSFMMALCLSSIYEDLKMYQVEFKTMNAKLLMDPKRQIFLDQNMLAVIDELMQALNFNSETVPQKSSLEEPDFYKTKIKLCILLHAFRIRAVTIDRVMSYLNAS
# TEST_NAME: FACS competition, IL-12-His 20 nM on 293T-IL-12RB1&IL-23R cells, antibody 0.01 µg/mL
# Method: 200 μL of 1% PBSA was added into each sample, and the mixture was centrifuged at 700×g for 5 min to discard the supernatant. According to experiment design, correspondingly diluted antibody (highest final concentration of 30 μg/mL, 3-fold dilution, 8 concentrations in total) and human IL-12 (Sino Biological, Cat. No.: CT-050-H08H-20) (final concentration of 20 nM) were mixed at a ratio of 1:1, and a blank control was set. […]
ASSAY_READOUT: MFI
One number for each entry.

Worked examples, 2 binders total:
ustekinumab (trade name Stelara) (antibody, V domains shown) VH: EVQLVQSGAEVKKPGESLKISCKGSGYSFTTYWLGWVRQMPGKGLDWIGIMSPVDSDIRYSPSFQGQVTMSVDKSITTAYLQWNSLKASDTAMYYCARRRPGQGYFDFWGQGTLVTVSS VL: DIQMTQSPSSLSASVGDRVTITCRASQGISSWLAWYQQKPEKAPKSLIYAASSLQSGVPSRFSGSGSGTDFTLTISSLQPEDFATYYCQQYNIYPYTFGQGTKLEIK	160
H5L12 (antibody, human IgG1, kappa, V domains shown, IgG1/kappa) VH: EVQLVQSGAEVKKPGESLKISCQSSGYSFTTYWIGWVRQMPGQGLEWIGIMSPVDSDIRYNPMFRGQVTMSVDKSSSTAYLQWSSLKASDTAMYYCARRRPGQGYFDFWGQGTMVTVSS VL: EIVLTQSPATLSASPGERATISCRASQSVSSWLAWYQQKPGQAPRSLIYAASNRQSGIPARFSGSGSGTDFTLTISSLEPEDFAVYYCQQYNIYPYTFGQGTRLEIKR	161

Data request: Please look up its MFI: H5L10 (antibody, human IgG1, kappa, V domains shown, IgG1/kappa) VH: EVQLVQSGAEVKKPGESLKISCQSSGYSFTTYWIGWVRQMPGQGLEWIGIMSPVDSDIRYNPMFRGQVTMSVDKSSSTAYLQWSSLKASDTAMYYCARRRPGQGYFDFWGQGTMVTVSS VL: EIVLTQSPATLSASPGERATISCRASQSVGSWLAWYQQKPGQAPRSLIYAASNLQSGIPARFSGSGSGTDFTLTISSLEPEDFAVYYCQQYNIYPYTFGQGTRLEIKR
Data returned: 163
